Biological target: ATP-dependent translocase ABCB1 (Homo sapiens)
Sequence (P08183 whole entry): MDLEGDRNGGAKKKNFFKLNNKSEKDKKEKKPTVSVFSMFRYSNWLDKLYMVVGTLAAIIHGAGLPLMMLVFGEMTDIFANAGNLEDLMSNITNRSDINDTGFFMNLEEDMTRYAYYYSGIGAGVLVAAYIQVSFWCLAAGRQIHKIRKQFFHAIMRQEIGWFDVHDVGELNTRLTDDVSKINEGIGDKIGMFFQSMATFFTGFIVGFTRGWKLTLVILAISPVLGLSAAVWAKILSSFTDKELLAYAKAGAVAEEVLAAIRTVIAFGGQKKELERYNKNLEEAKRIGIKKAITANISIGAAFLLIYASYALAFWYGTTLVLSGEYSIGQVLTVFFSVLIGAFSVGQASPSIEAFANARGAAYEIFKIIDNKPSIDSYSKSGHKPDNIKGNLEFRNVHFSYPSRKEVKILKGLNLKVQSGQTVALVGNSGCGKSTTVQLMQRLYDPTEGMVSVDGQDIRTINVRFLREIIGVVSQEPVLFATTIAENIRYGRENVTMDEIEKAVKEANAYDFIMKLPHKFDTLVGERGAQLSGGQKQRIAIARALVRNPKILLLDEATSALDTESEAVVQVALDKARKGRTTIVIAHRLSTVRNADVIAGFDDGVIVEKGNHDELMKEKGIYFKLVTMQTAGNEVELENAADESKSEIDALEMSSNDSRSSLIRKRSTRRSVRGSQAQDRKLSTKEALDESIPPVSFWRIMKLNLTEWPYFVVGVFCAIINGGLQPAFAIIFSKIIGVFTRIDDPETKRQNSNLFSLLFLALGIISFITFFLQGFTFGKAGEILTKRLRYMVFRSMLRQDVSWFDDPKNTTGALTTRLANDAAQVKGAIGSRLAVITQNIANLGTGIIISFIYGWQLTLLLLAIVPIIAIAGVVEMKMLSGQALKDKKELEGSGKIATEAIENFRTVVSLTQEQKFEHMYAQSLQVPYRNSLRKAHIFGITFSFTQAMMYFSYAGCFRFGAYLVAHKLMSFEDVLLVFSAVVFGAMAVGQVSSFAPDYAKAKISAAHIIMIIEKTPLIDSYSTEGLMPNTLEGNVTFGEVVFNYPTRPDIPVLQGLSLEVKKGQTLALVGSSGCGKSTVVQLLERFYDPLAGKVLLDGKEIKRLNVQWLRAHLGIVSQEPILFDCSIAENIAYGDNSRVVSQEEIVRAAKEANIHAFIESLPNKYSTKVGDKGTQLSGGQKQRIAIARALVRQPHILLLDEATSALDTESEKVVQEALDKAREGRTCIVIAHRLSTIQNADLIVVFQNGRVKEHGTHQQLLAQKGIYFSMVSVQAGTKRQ
Test: Inhibition of ABCB1 (unknown origin) expressed in Flp-In-293 cells assessed as increase in calcein-AM uptake at 2.5 uM preincubated for 30 mins followed by calcein-AM addition measured after 30 mins by fluorescence spectrometric method relative to control
Assay type: cell-based
Settings: 0.5 h
Catalogue of fold change (FC) readings, one per entry.
measured.attribute: fold change (FC)

INSERT INTO measurements (record_smiles, number) VALUES
  ('COc1ccc(-c2cc(OC(C)=O)c3c(-c4ccc(C)cc4)c(N)oc3c2)cc1', 1.45),
  ('COc1ccc(-c2cc(OC(C)=O)c3c(-c4c(Cl)cccc4Cl)c(N)oc3c2)cc1', 1.34),
  ('COc1ccc(-c2cc(OC(C)=O)c3c(-c4ccccc4Cl)c(N)oc3c2)cc1', 1.3),
  ('COc1ccc(-c2cc(OC(C)=O)c3c(-c4cccs4)c(N)oc3c2)cc1OC', 3.75),
  ('CC(=O)Oc1cccc2oc(N)c(-c3cccs3)c12', 1.05),
  ('COc1ccc(-c2cc(OC(C)=O)c3c(-c4cccc(Cl)c4)c(N)oc3c2)cc1', 1.85),
  ('COc1ccc(-c2cc(OC(C)=O)c3c(-c4ccc5c(c4)OCO5)c(N)oc3c2)cc1', 1.3);
